This collection of values is drawn from patent US20110028445A1.

- assayTarget: 11β-HSD1 (Homo sapiens, UniProt P28845)
- Construct: detecting cortisol generated from cortisterone by human liver microsomes; from tissue; host or cells: human liver microsomes
- Sequence (P28845 whole entry): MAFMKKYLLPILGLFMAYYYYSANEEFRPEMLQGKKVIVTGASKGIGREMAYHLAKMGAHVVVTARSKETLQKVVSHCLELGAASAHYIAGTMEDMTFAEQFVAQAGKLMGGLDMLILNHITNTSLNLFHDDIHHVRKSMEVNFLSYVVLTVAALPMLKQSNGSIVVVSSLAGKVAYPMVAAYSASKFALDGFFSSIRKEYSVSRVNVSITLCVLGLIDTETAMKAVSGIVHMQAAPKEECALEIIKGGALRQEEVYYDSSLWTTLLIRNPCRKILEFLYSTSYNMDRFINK
- protocolNotes: In vitro inhibition of 11β-HSD1, HTRF detection of cortisol generated by human liver microsomes
- Assay type: biochemical
- experimentalParameters: compound concentration 1 μM, 100% indicates no inhibition, zero or below zero indicates complete inhibition, cortisone 80 nM, 1 hour at 37° C., read-out: % CTL at 1 μM
readoutKind: remaining activity at 1 µM (%)
# value in %; strip the unit string

Q) Answer with reported remaining activity at 1 µM of `CC1(C)[C@H]2Cc3ccccc3[C@]1(C)CCN2C(=O)N1CCC(O)CC1`
A) -15

Q) Answer with reported remaining activity at 1 µM of COC(=O)CC1(c2ccccc2)CCN(C(=O)N2CC[C@@]3(C)c4ccccc4C[C@@H]2C3(C)C)C1 (stereo partly shown)
A) 26

Q) Answer with reported remaining activity at 1 µM of CC1(C)[C@H]2Cc3c(O)cccc3[C@]1(C)CCN2C(=O)N1CCCC(CO)C1 (stereo partly shown)
A) -54

Q) Answer with reported remaining activity at 1 µM of CC1(C)[C@H]2Cc3c(O)cccc3[C@]1(C)CCN2C(=O)N1CCCC2(CCNC2=O)C1 (stereo partly shown)
A) -31

Q) Answer with reported remaining activity at 1 µM of `CC1(C)[C@H]2Cc3c(O)cccc3[C@]1(C)CCN2C(=O)N1CCC(C(N)=O)CC1`
A) -20

Q) Answer with reported remaining activity at 1 µM of CC1(C)[C@H]2Cc3c(O)cccc3[C@]1(C)CCN2C(=O)N1C2CCC1CC(O)C2 (stereo partly shown)
A) -46

Q) Answer with reported remaining activity at 1 µM of `CC1(C)[C@H]2Cc3c(O)cccc3[C@]1(C)CCN2C(=O)N1CCCc2cc(NC(=O)C(F)(F)F)ccc21`
A) 23

Q) Answer with reported remaining activity at 1 µM of `C[C@@H]1[C@H]2Cc3ccc(O)cc3[C@]1(C)CCN2C(=O)N1CCCCC1`
A) -39

Q) Answer with reported remaining activity at 1 µM of CC1(C)[C@H]2Cc3c(O)cccc3[C@]1(C)CCN2C(=O)N1CCCC(c2nc3ccccc3[nH]2)C1 (stereo partly shown)
A) 27

Q) Answer with reported remaining activity at 1 µM of `CC1(C)[C@H]2Cc3ccccc3[C@]1(C)CCN2C(=O)N1CCC[C@H](CO)C1`
A) -33

Q) Answer with reported remaining activity at 1 µM of CC(C)(O)CC1(c2ccccc2)CCN(C(=O)N2CC[C@@]3(C)c4ccccc4C[C@@H]2C3(C)C)C1 (stereo partly shown)
A) 61

Q) Answer with reported remaining activity at 1 µM of CC1(C)[C@H]2Cc3c(O)cccc3[C@]1(C)CCN2C(=O)N1CCC(CO)C1 (stereo partly shown)
A) -4

Q) Answer with reported remaining activity at 1 µM of `CC1(C)[C@H]2Cc3c(O)cccc3[C@]1(C)CCN2C(=O)N1CCC(CO)CC1`
A) -43
